// provenance: ChEMBL document CHEMBL1201862

# Test system: SF-539
# MEASUREMENT_PROTOCOL: NCI tumour cell line growth inhibition, 48 h
Activity calls are given as the source filed them. Cut-off read from the data, not from the text of the source: active = GI50 up to about 1.1 µM and inactive = higher.
OBSERVABLE: GI50

>>> test_result("O=C(CCc1cc(-c2ccccc2)[nH]c(=S)n1)Nc1ccccc1[N+](=O)[O-]")
"> 100 µM (inactive)"

Note to self: GI50 recorded for N#CC(C(=N/O)/C(=N\O)C(C#N)c1ccccc1)c1ccccc1 (stereo not given) was > 100 µM (inactive)

Lab note: measured GI50 of "O=C1c2ccccc2C(=O)N1C/C=N/NS(=O)(=O)c1ccc(Cl)cc1" was > 100 µM (inactive)

Looking up "COc1cc(/C=C2\[C@H]3c4c(c(OC)c(C)c(OC)c4OC)C[C@@H](C(=O)N2Cc2ccccc2)N3C(=O)OC(C)C)c(OC)c(C)c1OC" , I found its GI50 recorded as > 100 µM (inactive)

* * *

# Test system: UO-31
# MEASUREMENT_PROTOCOL: NCI tumour cell line growth inhibition, 48 h
Calls of active or inactive are those of the source. No stated cut-off is given here; in the data, active = GI50 up to about 1.1 µM and inactive = higher.
OBSERVABLE: GI50

# count of solved cases: 5
>>> test_result("COc1ccc2cc3n(c2c1)CCc1cc(OC)c(OC)cc1-3")
"> 100 µM (inactive)"
>>> test_result("Nc1ccc(C(=O)/C=C/c2ccccc2O)cc1")
"> 100 µM (inactive)"
>>> test_result("COc1ccccc1C(=O)N(Cc1ccccc1)c1ccc(Cl)c(C(=O)OC(C)C)c1")
"7.71 µM (inactive)"
>>> test_result("CN1c2ccc(O)c(O)c2-c2cc(O)cc3c2C1CCC3 (stereo not given)")
"13.6 µM (inactive)"
>>> test_result("Nc1ccc(C(=O)NN2C(=O)C(Cl)C2c2cccc(O)c2)cc1 (stereo not given)")
"19.7 µM (inactive)"

// recorded GI50 for "O=[As](O)(O)c1ccc(/N=N/c2ccc([As](=O)(O)O)cc2)cc1" : > 100 µM (inactive)

Reported GI50 for "O=CNNC(=O)Nc1cccc2ccccc12" was > 100 µM (inactive)

Entry "CCOC(=O)/C(C#N)=C\Sc1ccccc1" , GI50 reported as 9.2 µM (inactive)

// field: GI50; key: "C[C@]12CC[C@@H]3c4ccc(O)cc4CC[C@H]3[C@@H]1CC[C@@H]2OC(=O)CCc1ccccc1" ; value = 16 µM (inactive)

What the record says about COc1cccc(C2N3CCCCC3[C@@H]3c4[nH]c5ccccc5c4CCN23)c1OC (stereo not given in full) : GI50 is 14.9 µM (inactive)

GI50 recorded for this compound, "C[Si](C)(C)/C=C\CCCN1C(=O)CCC1=O" , is > 100 µM (inactive)

Form: compound = "Cc1cc(S(=O)(=O)Nc2n[nH]c(-c3ccc(Cl)cc3)n2)c(SSc2cc(Cl)c(C)cc2S(=O)(=O)Nc2n[nH]c(-c3ccc(Cl)cc3)n2)cc1Cl" ; GI50 = 29.4 µM (inactive)

Lab book: GI50 of COc1ccc(C2CC(c3cc4c(C)c(C(=O)c5ccccc5)oc4cc3O)=Nc3ccccc3S2)cc1OC (stereo not given) noted as > 100 µM (inactive)

compound "CS(C)(=O)=Nn1c(=O)n2n(c1=O)C1c3ccccc3C2c2ccccc21" , GI50 observed: > 100 µM (inactive)

* * *

# System: K562
# MEASUREMENT_PROTOCOL: NCI tumour cell line growth inhibition, 48 h
The source made the active and inactive calls. Cut-off read from the data, not from the text of the source: active = GI50 up to about 1.1 µM and inactive = higher.
Measured GI50 accompanies every entry in the list below.

As a guide, the following entries are already answered.
>>> test_result("CCOC(=O)NC(=O)c1cn(C2OC(CO)C(O)C2O)c(=O)[nH]c1=O (stereo not given)")
"> 100 µM (inactive)"
>>> test_result("N#CC(C(=N/O)/C(=N\\O)C(C#N)c1ccccc1)c1ccccc1 (stereo not given)")
"> 100 µM (inactive)"

What the record says about "Cc1nnc2n1-c1ccccc1-c1[nH]c3ccccc3c1C2" : GI50 is 24.2 µM (inactive)

Given item CC(c1ccccc1)C(O)S(=O)(=O)O (stereo not given) , the value recorded as its GI50 is > 10 µM (inactive)

Field GI50 (entry CC1(C)NC(C(=O)c2ccccc2)=[N+]([O-])C1(O)c1ccccc1 (stereo not given) ) reads > 100 µM (inactive)

Entry "CCOP(=O)(/C=C/n1cnc2c(=O)n(C(C)=O)c(N)nc21)OCC" ; GI50 = > 100 µM (inactive)

For this molecule ( "O=C1/C(=C/c2cccc([N+](=O)[O-])c2)N=C(c2ccccc2)N1c1nc2c(Cl)cc(Cl)cc2s1" ), measured GI50 is 31.1 µM (inactive)

# molecule "N#CCCN(c1ccc(/C=N/c2ccccc2Cl)cc1)S(=O)(=O)c1ccccc1" ; its GI50 = > 100 µM (inactive)

GI50 measured on "O=C(NOC(=O)c1ccc([N+](=O)[O-])cc1)c1ccc(Cl)cc1" = 21.6 µM (inactive)

// CC(C)CC1C(=O)NCCC(NC(=O)C(N)Cc2ccc(O)cc2)C(=O)NC(Cc2ccccc2)C(=O)NC(Cc2ccccc2)NC1=O (stereo not given) : GI50 value = > 100 µM (inactive)

* * *

This listing pairs molecules with measured GI50.
# System: DU-145
# MEASUREMENT_PROTOCOL: NCI tumour cell line growth inhibition, 48 h
The source made the active and inactive calls. No stated cut-off is given here; in the data, active = GI50 up to about 1.1 µM and inactive = higher.

>>> test_result("Cc1cccc2c(=O)c3c(O)cc(O)cc3n(C)c12")
"> 100 µM (inactive)"
>>> test_result("O=C(NC(=S)Nc1ccc(Br)cc1)c1ccc2c(c1)Sc1ccccc1O2")
"> 100 µM (inactive)"

# GI50 of "CCCCNC(=O)c1cc(S(=O)(=O)n2ccnc2O)c(SC)cc1Cl" = > 100 µM (inactive)

// recorded GI50 for O=C1NN=C2C=C(c3ccc(Cl)cc3)CC(c3cccc(Br)c3)C12 (stereo unspecified) : 41.8 µM (inactive)

So, "N=C1N(S(=O)(=O)c2ccccc2)[C@@H](Cc2ccccc2)[C@H](c2ccccc2)C1(c1ccccc1)c1ccccc1" ? Its GI50 was > 100 µM (inactive)

* * *

# Test system: HT-29
# MEASUREMENT_PROTOCOL: NCI tumour cell line growth inhibition, 48 h
Active and inactive are the calls of the source. Cut-off read from the data, not from the text of the source: active = GI50 up to about 1.1 µM and inactive = higher.
Measured GI50 values are reported for all entries that follow.

>>> test_result("Cc1ccc(-c2cnc(NC3OC(COC(=O)c4ccccc4)C(OC(=O)c4ccccc4)C(OC(=O)c4ccccc4)C3OC(=O)c3ccccc3)s2)cc1 (stereo not given)")
"> 100 µM (inactive)"
>>> test_result("CC1(C)CN(CC(=O)O)CC(Cc2ccc(OCC(=O)O)cc2)N(CC(=O)O)CC(C)(C)SS1 (stereo not given)")
"> 100 µM (inactive)"
>>> test_result("O=[As](O)(O)c1ccc(/N=N/c2ccc([As](=O)(O)O)cc2)cc1")
"> 100 µM (inactive)"

"O=C(NNC(=S)Nc1ccccc1)c1nsc2ccccc12" has a reported GI50 of 50 µM (inactive)

The measured GI50 associated with "CC(=O)O[C@H]1C(=O)N(c2cc3c4ccccc4ccc3c3ccccc23)[C@@H]1c1ccccc1" reads 2.64 µM (inactive)

"O=C1/C(=C/c2ccccc2)CN(C(=O)OCC(Cl)(Cl)Cl)C/C1=C\c1ccccc1" has a reported GI50 of 1.6 µM (inactive)

GI50 recorded for this molecule, "COc1ccc(CN2CC(C)(C)C2=O)c(OC)c1" , is > 100 µM (inactive)

Entry "CN[C@@H](C)[C@@H](N)c1ccccc1" — recorded GI50 = > 100 µM (inactive)

Quick note, GI50 for COc1cccc(C2c3cc4c(cc3OC(C)(N3CCCC3)C2C)OCO4)c1O (stereo not given) landed at 2.36 µM (inactive)

Note to self: GI50 recorded for "Clc1ccc(-c2c(C3=NCCN3)nnn2-c2ccc(Cl)cc2)cc1" was 13.9 µM (inactive)

* * *

# System: MOLT-4
# MEASUREMENT_PROTOCOL: NCI tumour cell line growth inhibition, 48 h
Calls of active or inactive are those of the source. No stated cut-off is given here; in the data, active = GI50 up to about 1.1 µM and inactive = higher.
OBSERVABLE: GI50

>>> test_result("COc1ccc(/C=C2\\CCC/C(=C\\c3ccc(O)c(CN4CCCCC4)c3)C2=O)cc1")
"2.59 µM (inactive)"
>>> test_result("COC(=O)C(CC(=O)Nc1ccc(Cl)c(Cl)c1)C(=O)C(=O)Nc1ccc(Cl)c(Cl)c1 (stereo unspecified)")
"94.6 µM (inactive)"
>>> test_result("CCc1cc2c(oc3cc(C)ccc32)c(=O)n1C")
"> 10 µM (inactive)"
>>> test_result("Nc1nc2ccc3ccccc3c2[nH]1")
"> 10 µM (inactive)"
>>> test_result("O=C1c2ccccc2-c2nc(-c3cccs3)cc3c2c1nc1ccccc13")
"37.1 µM (inactive)"
>>> test_result("NCCCN(CCCN(C(=O)Nc1ccccc1)c1ccccc1)C(=O)Nc1ccccc1")
"52 µM (inactive)"

Record "N#C/C(=C\c1cn(Cc2ccccc2)c2ccccc12)c1nn(-c2ccccc2)c(N)c1C#N" has MOLT-4 GI50 equal to 26.1 µM (inactive)

Given the molecule "N/C1=C/C(=O)NC(=O)c2c(c3ccccc3oc2=O)C1" and test system MOLT-4, the measured GI50 is > 100 µM (inactive)

Record "N/C(S)=N/N=C/c1cc(CN2CCOCC2)c(N)cn1" has MOLT-4 GI50 equal to 48.1 µM (inactive)

Measured on MOLT-4, OC(c1cc2ccc(C(F)(F)F)cc2c2cc(C(F)(F)F)ccc12)C1CCCCN1 (stereo unspecified) has a documented GI50 of 1.41 µM (inactive)

Form field, GI50 with MOLT-4, item C=C1CC(CC)(CCN2C(=O)c3ccccc3C2=O)OC1=O (stereo unspecified) : 21.9 µM (inactive)
